target: MYT1 protein (Homo sapiens (Human), UniProt Q99640); assay: MYT1 kinase activity inhibition test (ELISA, phosphorylation of Y15 of CDK1); assay type: biochemical; settings: phosphorylation level of Y15 of CDK1 protein caused by MYT1 protein, 60 minutes
Sequence (Q99640 whole entry): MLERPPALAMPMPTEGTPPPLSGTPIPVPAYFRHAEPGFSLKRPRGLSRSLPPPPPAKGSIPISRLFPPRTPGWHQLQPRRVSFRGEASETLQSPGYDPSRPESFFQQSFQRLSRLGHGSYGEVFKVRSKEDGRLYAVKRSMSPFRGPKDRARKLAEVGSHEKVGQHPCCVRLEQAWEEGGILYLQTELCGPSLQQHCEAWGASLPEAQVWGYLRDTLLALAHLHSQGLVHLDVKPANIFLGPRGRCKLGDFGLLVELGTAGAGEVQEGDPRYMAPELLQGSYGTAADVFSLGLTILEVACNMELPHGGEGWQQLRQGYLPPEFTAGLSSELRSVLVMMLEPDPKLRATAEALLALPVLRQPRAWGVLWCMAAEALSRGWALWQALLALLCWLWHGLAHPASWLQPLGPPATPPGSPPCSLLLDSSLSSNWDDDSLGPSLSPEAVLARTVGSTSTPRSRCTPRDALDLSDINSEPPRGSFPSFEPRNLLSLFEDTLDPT
pIC50: −log10 of the molar value.
Measure: pIC50

Past entries and their recorded results:
Nc1c(-c2ccc(F)c3[nH]ncc23)c2ccc3ccccc3c2[nH]c1=O ... 9.59
Nc1c(-c2ccc(Cl)c3[nH]ncc23)c2cc(Cl)ccc2[nH]c1=O ... 9.22

a: CC(C)N1CCC(c2cc3c(-c4ccc(F)c5[nH]ncc45)c(N)c(=O)[nH]c3c3cccnc23)CC1.O=CO [Compound C136, formate]
b: Nc1c(-c2ccc(F)c3[nH]ncc23)c2cc(Cl)ccc2[nH]c1=O
Pick one: a or b . Which has the bigger pIC50 number? Choose, then provide that item's label.
b

a: Nc1c(-c2ccc(F)c3[nH]ncc23)c2cc(/C=C/CCO)c3ncccc3c2[nH]c1=O
b: Nc1c(-c2cc(F)c(Cl)c3[nH]ncc23)c2cc(C3CC3)c3ncccc3c2[nH]c1=O
Pick one: a or b . Which has the bigger pIC50 number? Choose, then provide that item's label.
b
